Test system: HCC-2998 colon
assay_method_text: NCI-60 one-dose screen, 48 h (100 = growth as untreated, 0 = no growth, -100 = all killed)
run_conditions: 10 µM
The panel holds about 83,000 compounds, 20% with a hit somewhere; the sample as a whole holds those more often.
measured_endpoint: growth (%)
Unit % implied. Number only.

Recorded growth, per entry:
Cc1cc2nc(CC(=O)c3ccccc3)c(=O)[nH]c2cc1C
110
COc1cc([C@@H]2c3cc4c(cc3[C@H](O)[C@H]3COC(=O)[C@H]23)OCO4)cc(OC)c1OC
-4.87
COC(=O)c1ccccc1Br
106
CCN(CC)c1ccc2nc3ccc(=[N+](CC)CC)cc-3oc2c1
40.3
CCOC(=O)C/C(C)=N\O
101
Oc1ccc(O)cc1
114

Then there is this molecule:
Asked: Specify growth for COCCCC/C(=N\OCCN)c1ccc(C(F)(F)F)cc1 and stop.
Given back: 116

###

System: CAKI-1 renal
assay_method_text: NCI-60 one-dose screen, 48 h (100 = growth as untreated, 0 = no growth, -100 = all killed)
run_conditions: 10 µM
About 83,000 compounds went through this panel and 20% of them were active in at least one assay; those are over-represented in the sample as a whole.
Listing of entries alongside the reported growth.
Unit % implied. Number only.

Recorded growth, per entry:
O=C(O)c1cccc([N+](=O)[O-])c1O
99
COc1cc(C(=O)N/N=C/c2cccc([N+](=O)[O-])c2)cc(OC)c1OC
55.4
O=c1cc(-c2ccccc2)[nH]c2c1CCCC2
24.5

Asked: Consider the compound O=C(NN=C1CCCCC1)C(=O)NN=C1CCCCC1 tested on CAKI-1 renal; state its growth.
Given back: 110

Asked: Consider the compound O=C(CCNNC(=O)c1ccncc1)NCc1ccccc1 tested on CAKI-1 renal; state its growth.
Given back: 109

Asked: Consider the compound N/N=C(/Cc1ccccc1)NNC(N)=S tested on CAKI-1 renal; state its growth.
Given back: 96.4

Asked: Consider the compound O=[N+]([O-])c1cccc(N=Nc2ccc(O)cc2O)c1 tested on CAKI-1 renal; state its growth.
Given back: 39.1

Asked: Consider the compound CCOc1ccc2[nH]c(=S)sc2c1 tested on CAKI-1 renal; state its growth.
Given back: 100

Asked: Consider the compound COc1cccc(COC(=O)Nc2ccccc2)c1OC tested on CAKI-1 renal; state its growth.
Given back: 88.5

Asked: Consider the compound Cc1c(O)cccc1O tested on CAKI-1 renal; state its growth.
Given back: 61

Asked: Consider the compound Cc1c(C(=O)O)c(=O)n(-c2ccccc2)n1C tested on CAKI-1 renal; state its growth.
Given back: 98.3

Asked: Consider the compound CC1(O)CCCCC1O (stereo not drawn) tested on CAKI-1 renal; state its growth.
Given back: 102

Asked: Consider the compound COCCCC/C(=N\OCCN)c1ccc(C(F)(F)F)cc1 tested on CAKI-1 renal; state its growth.
Given back: 83.5

Asked: Consider the compound CC(=O)Nc1ccc(NC(C)=O)c2c1C(=O)c1ccccc1C2=O tested on CAKI-1 renal; state its growth.
Given back: 68.6

Asked: Consider the compound C=CCCCCCCCCCOC(C)=O tested on CAKI-1 renal; state its growth.
Given back: 104

Asked: Consider the compound C=CCNc1nnc(C)s1 tested on CAKI-1 renal; state its growth.
Given back: 119

Asked: Consider the compound O=[N+]([O-])c1ccccc1N=Nc1ccc(O)cc1O tested on CAKI-1 renal; state its growth.
Given back: 95.1

###

Tested on: NCI-H226 lung
assay_method_text: NCI-60 one-dose screen, 48 h (100 = growth as untreated, 0 = no growth, -100 = all killed)
run_conditions: 10 µM
This is part of a sample that, as a whole, favours compounds with a hit. Of some 83,000 tested, about 20% had one in any assay.
measured_endpoint: growth (%)
Unit % implied. Number only.

Recorded growth, per entry:
COC(=O)C(O)c1ccccc1 (stereo not drawn)
107
C=CC[N+](C)(C)C
93.6
O=C(O)CCCCNC(=O)c1ccccc1
92.3
CC(CN1CCCCC1)NC(=O)c1scnc1-c1ccccc1 (stereo not drawn)
108
CC1CCC(C(=O)O)N1 (stereo not drawn)
97.3

Asked: Specify growth for COC(=O)/C=C1\Sc2cc(F)ccc2NC1=O and stop.
Given back: 101

Asked: Specify growth for O=C(NCc1ccco1)Nc1c(Cl)cc(Cl)cc1Cl and stop.
Given back: 99.6

Asked: Specify growth for CC(O)COc1ccc(-c2ccccc2)cc1 (stereo not drawn) and stop.
Given back: 104

Asked: Specify growth for COC(=O)c1cccnc1 and stop.
Given back: 98

Asked: Specify growth for O=C(Nc1cccc(NC(=O)Nc2cc(C(F)(F)F)ccc2Cl)c1)Nc1cc(C(F)(F)F)ccc1Cl and stop.
Given back: 34.3

###

Test system: SN12C renal
assay_method_text: NCI-60 one-dose screen, 48 h (100 = growth as untreated, 0 = no growth, -100 = all killed)
run_conditions: 10 µM
About 83,000 compounds went through this panel and 20% of them were active in at least one assay; those are over-represented in the sample as a whole.
Listing of entries alongside the reported growth.
Unit % implied. Number only.

Cc1cc(C)c(N)c(S(=O)(=O)O)c1
97.7
CCOC(=O)C1OC1c1ccccc1 (stereo not drawn)
105
CCOC(=O)c1cc(/C=C/c2ccc(Cl)cc2Cl)on1
70.8
Cc1ccccc1N=C(c1ccccc1)C1C(=O)c2ccccc2C1=O
90.9
CCCCC(=O)c1ccc(OC)cc1
105
CC(CN1CCCCC1)NC(=O)c1scnc1-c1ccccc1 (stereo not drawn)
106
C[C@]12CC[C@@H]3c4ccc(OCC(=O)O)cc4CC[C@H]3[C@@H]1CCC2=O
102

Then there is this molecule:
Asked: Specify growth for Oc1ccc(N=Nc2ccc(Br)cc2)c(O)c1 and stop.
Given back: 54.1

###

System: OVCAR-5 ovarian
assay_method_text: NCI-60 one-dose screen, 48 h (100 = growth as untreated, 0 = no growth, -100 = all killed)
run_conditions: 10 µM
This is part of a sample that, as a whole, favours compounds with a hit. Of some 83,000 tested, about 20% had one in any assay.
measured_endpoint: growth (%)
Unit % implied. Number only.

Recorded growth, per entry:
COc1ccccc1N=Nc1c(O)ccc2cc(S(=O)(=O)O)ccc12
103
COC(=O)c1ccccc1N(C)C
114
COC(=O)Nc1cccc(Cl)c1OC
92.6
S=c1sc2ccccc2n1CN1CCCCC1
85
COc1cc(C(=O)N/N=C/c2cccc([N+](=O)[O-])c2)cc(OC)c1OC
83.7
OC1CCCc2ccccc21 (stereo unspecified)
100

Asked: Specify growth for Cc1nc2ccccc2c2nnc(SCC(=O)N(Cc3ccccc3)c3ccccc3)n12 and stop.
Given back: 95

Asked: Specify growth for Cc1ccccc1N=C(c1ccccc1)C1C(=O)c2ccccc2C1=O and stop.
Given back: 103

Asked: Specify growth for CCCCN(CCCC)CCCO and stop.
Given back: 99.4

###

System: HT29 colon
assay_method_text: NCI-60 one-dose screen, 48 h (100 = growth as untreated, 0 = no growth, -100 = all killed)
run_conditions: 10 µM
Compounds without any hit were thinned out: in the full panel of roughly 83,000, 20% have a hit.
measured_endpoint: growth (%)
Unit % implied. Number only.

Recorded growth, per entry:
O=C(Cc1ccccc1)Cc1ccccc1
108
Cc1cc(N2CCC(N3CCCC3)CC2)nc(/N=C(\N)Nc2ccc(Cl)c(Cl)c2)n1
-44.6
O=C(Cc1nc2ccc([N+](=O)[O-])cc2nc1CC(=O)c1ccccc1)c1ccccc1
75.3
O=[N+]([O-])c1ccccc1S(=O)c1ccccc1[N+](=O)[O-]
107

Asked: Consider the molecule C=CCc1cc(C(C)=O)cc(OC)c1O tested on HT29 colon; state its growth.
Given back: 108

Asked: Consider the molecule Cc1cc(C(C)(C)C)cc(C)c1Br tested on HT29 colon; state its growth.
Given back: 113

Asked: Consider the molecule CCOc1ccc(Br)cc1/C=N\N=C\c1cc(Br)ccc1OCC tested on HT29 colon; state its growth.
Given back: 107

Asked: Consider the molecule O=C(c1ccccc1)C1CCC1 tested on HT29 colon; state its growth.
Given back: 85.4

Asked: Consider the molecule COc1cc2c(cc1OC)[C@H](C(=O)O)[C@@H](c1ccc(OC(C)C)c(OC)c1)N(C)C2=O tested on HT29 colon; state its growth.
Given back: 105

Asked: Consider the molecule CC(C)=NNC(N)=S tested on HT29 colon; state its growth.
Given back: 40.5

###

Test system: SF-539 CNS
assay_method_text: NCI-60 one-dose screen, 48 h
run_conditions: 10 µM
About 83,000 compounds went through this panel and 20% of them were active in at least one assay; those are over-represented in the sample as a whole. Active and inactive are the calls of the source. The calls were made as follows: active = growth percent below 10; inactive = the rest.
# valid calls are active, inactive; nothing else

Before answering, review these 6 worked examples.
CC(C)=NNC(N)=S
inactive
O=[N+]([O-])c1ccc(Sc2ccncn2)c([N+](=O)[O-])c1
inactive
NC(=S)CN1CCOCC1
inactive
CN(C)CCC(=O)c1ccc(O)cc1
inactive
COc1ccc(C2(O)CCCCC2)cc1
inactive
CC[N+](C)(CC)CCO
inactive

Asked: For C/C(=N\O)C1(O)CCCCC1 , which call appears in the assay record?
Given back: inactive

Asked: For COc1ccc(/C=C/c2cccc[n+]2C)cc1 , which call appears in the assay record?
Given back: inactive

Asked: For COc1ccccc1NC(=O)C1=C(C)NC(C)=C(C(=O)Nc2ccccc2OC)C1c1cccc([N+](=O)[O-])c1 , which call appears in the assay record?
Given back: inactive

Asked: For O=C(NCc1ccco1)Nc1c(Cl)cc(Cl)cc1Cl , which call appears in the assay record?
Given back: inactive

Asked: For COc1ccc2c(NCCCCCCCCNc3c4ccccc4nc4cc(OC)ccc34)c3ccccc3nc2c1 , which call appears in the assay record?
Given back: active
